target: Botulinum neurotoxin mosaic BoNT/DC (Clostridium botulinum); experiment: range-finding KinExA, IgG
# reported Kd; entries follow

binder	Kd [pM]
4C10.22 IgG (antibody, V domains shown) VH: QVQLVQSGGGVVQPGRSLRLSCGASGFKFSGFDMHWVRQAPGKGLEWVARISHDGSMADYADSLRGRFTISRDNSKNTLYLQMNSLRVEDTALYYCAKDPWRSGSYPAFEIWGQGTMVTVSS VL: EIVLTQSPSFLSAFIGDRITITCRASQGISNRLAWYQQKPGKAPNLLIYPASTLQSGVPSRFSGSGSGTDFTLTISSLQPEDFATYYCQQANSFPLTFGGGTKVEIKR	60.4
4C10.23 IgG (antibody, V domains shown) VH: QVQLVQSGGGVVQPGRSLRLSCGASGFKFSGFDMHWVRQAPGKGLEWVARISHDGSMADYADSLRGRFTISRDNSKNTLYLQMNSLRVEDTALYYCAKDRWRSGSYPAFEIWGQGTMVTVSS VL: EIVLTQSPSFLSAFVGDRITITCRASKGIGNRLAWYQQKPGKAPNLLIHPASTLQSGVPSRFSGSGSGTDFTLTISSLQPEDFATYYCQQANSFPLTFGGGTKVEIKR	90.4
4C10.15 IgG (antibody, V domains shown) VH: QVQLVQSGGGVVQPGRSLRLSCGASRFTFSGFDMHWVRQAPGKGLEWVARISHDGSMADYADSLRGRFTISRDNSKNTLYLQMNSLRVEDTALYYCAKDRWRSGSYPAFEIWGQGTMVTVSS VL: EIVLTQSPSFLSAFVGDRITITCRASKGIGNRLAWYQQKPGKAPNLLIHPASTLQSGVPSRFSGSGSGTDFTLTISSLQPEDFATYYCQQANSFPLTFGGGTKVEIKR	112
